Reported %Inh by item:
System: MEK2;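 further: KINOMEscan kinase panel screen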
Construct: gene MAP2K2
Experimental Conditions: concentration: 1 μM,replicates: in singlicate; n = 1
Your answer should be a plain number; it is taken to be in %.

Recorded results for 5 compounds are shown here.
{"Compound": "O=C(NOCC1CC1)c1cc(Br)c(F)c(F)c1Nc1ccc(I)cc1Cl", "Meas Value": 58}
{"Compound": "COc1cccc(C2=C(Nc3cccc(Cl)c3)C(=O)NC2=O)c1", "Meas Value": 0}
{"Compound": "Cn1cc(-c2cccc3c(N)c(C(N)=O)nnc23)cn1", "Meas Value": 21}
{"Compound": "Nc1nccc(-c2ccc3c(N)n[nH]c3c2)n1", "Meas Value": 0}
{"Compound": "CC(C)S(=O)(=O)N1CCN(Cc2ccc3c(c2)nc(NC(=O)c2ccsc2)n3C[C@H](O)c2ccccc2)CC1", "Meas Value": 0}

// %Inh lookup, key: `CCCC(=O)Nc1n[nH]c2ncccc12`
13

// %Inh lookup, key: `CCN1CCN(CCCC(=O)Nc2n[nH]c3nc(-c4ccc(O)cc4)c(Br)cc23)CC1`
0

// %Inh lookup, key: CC(C(=O)NC1CCN(c2ccnc(Nc3ccc(F)cc3)n2)C1)c1ccc(Cl)cc1 (stereo not shown)
0

// %Inh lookup, key: `COc1cccc(OC)c1C(=O)Nc1cccc(-c2nn3ccccc3c2-c2ccnc(Nc3cccc(F)c3)n2)c1`
41

// %Inh lookup, key: `CC(=O)c1c(-c2ccncc2)[nH]c(-c2ccncc2)c1C`
0

Data provenance: paper PMC5540273
